Each entry below lists one item and its recorded IC50 value.
Target: recombinant human MMP-1 (Homo sapiens)
Construct: made in house; host or cells: transfected HT-1080 cells (provided by Dr. Harold Welgus, Washington University)
Sequence (P03956 100-469): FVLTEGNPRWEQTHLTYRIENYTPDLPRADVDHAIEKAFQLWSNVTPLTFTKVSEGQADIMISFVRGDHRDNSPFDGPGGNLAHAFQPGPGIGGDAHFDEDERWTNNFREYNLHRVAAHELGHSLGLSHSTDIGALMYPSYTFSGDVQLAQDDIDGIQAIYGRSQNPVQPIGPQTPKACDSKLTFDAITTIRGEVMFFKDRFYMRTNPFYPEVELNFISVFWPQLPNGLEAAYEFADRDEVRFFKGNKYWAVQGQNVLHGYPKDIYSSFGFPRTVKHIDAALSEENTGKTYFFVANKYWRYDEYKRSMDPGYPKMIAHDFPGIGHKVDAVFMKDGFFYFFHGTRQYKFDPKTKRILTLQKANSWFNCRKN
Assay: biochemical

Example molecules with recorded IC50:
CN1CCC(C(=O)NO)(S(=O)(=O)c2ccc(Sc3ccccc3)cc2)CC1.Cl [Example 33, Monohydrochloride] :: > 10 µM
Cl.O=C(NO)C1(S(=O)(=O)c2ccc(Sc3ccccc3)cc2)CCN(C2CC2)CC1 [Example 32, Monohydrochloride] :: > 10 µM

State its IC50: CC(=O)N1CCC(C(=O)NO)(S(=O)(=O)c2ccc(Oc3ccccc3)cc2)CC1
0.464 µM

###

Target: recombinant human MMP-2 (Homo sapiens, UniProt P08253)
Sequence (P08253 110-660): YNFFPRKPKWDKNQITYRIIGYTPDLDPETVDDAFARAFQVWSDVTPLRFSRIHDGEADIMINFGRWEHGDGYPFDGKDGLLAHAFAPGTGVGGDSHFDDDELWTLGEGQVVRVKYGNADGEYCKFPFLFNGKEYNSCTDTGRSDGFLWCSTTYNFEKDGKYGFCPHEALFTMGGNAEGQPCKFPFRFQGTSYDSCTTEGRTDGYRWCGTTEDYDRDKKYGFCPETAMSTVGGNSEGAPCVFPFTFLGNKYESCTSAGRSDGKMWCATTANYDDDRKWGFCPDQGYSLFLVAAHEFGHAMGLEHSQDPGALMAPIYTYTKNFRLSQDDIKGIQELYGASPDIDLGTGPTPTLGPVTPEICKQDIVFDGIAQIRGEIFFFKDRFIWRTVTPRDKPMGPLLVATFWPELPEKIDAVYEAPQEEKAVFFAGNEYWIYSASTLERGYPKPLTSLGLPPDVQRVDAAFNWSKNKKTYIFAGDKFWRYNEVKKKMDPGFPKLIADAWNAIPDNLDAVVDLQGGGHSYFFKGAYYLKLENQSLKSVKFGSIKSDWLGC
Assay: biochemical
Details: Inhibition Table A; read-out: MMP-2 IC50
Each entry below lists one item and its recorded log10 of IC50 value.
A value of 2 here means IC50 of 100 in nM, since values are log10.

Example molecules with recorded log10 of IC50:
O=C(NO)C1(S(=O)(=O)c2ccc(Sc3ccc(F)cc3)cc2)CCN(C2CC2)CC1 :: -0.40
C#CCN1CCC(C(=O)NO)(S(=O)(=O)c2ccc(Sc3ccc(F)cc3)cc2)CC1 :: 0.00
O=C(NO)C1(S(=O)(=O)c2ccc(Oc3ccccc3)cc2)CCN(CC2CC2)CC1 :: -0.82
CC(C)(C)OC(=O)N1CCC(C(=O)NO)(S(=O)(=O)c2ccc(Oc3ccccc3)cc2)CC1 :: -0.70
O=C(CS(=O)(=O)c1ccc(NC(=O)c2ccccc2)cc1)NO :: 0.26
C#CCN1CCC(C(=O)NO)(S(=O)(=O)c2ccc(SC3CCCCC3)cc2)CC1 :: -0.40

State its log10 of IC50: O=C(NO)/C(=C\c1ccccc1)S(=O)(=O)c1ccc(Oc2ccccc2)cc1
3.26

State its log10 of IC50: C#CCN1CCC(C(=O)NO)(S(=O)(=O)c2ccc(Oc3ccccc3)cc2)CC1
-0.82

State its log10 of IC50: CC(C)(C(=O)NO)S(=O)(=O)c1ccc(Oc2ccccc2)cc1
-1.00

State its log10 of IC50: O=C(NO)C1(S(=O)(=O)c2ccc(SC3CCCCC3)cc2)CCNCC1
1.14

###

Details: Rat Intravenous 20 mpk
Metric: t½ Hour
Respond with a number, then the unit of measure.

Example compounds with recorded t½ Hour:
O=C(NO)C1(S(=O)(=O)c2ccc(Oc3ccccc3)cc2)CCSCC1 :: 1.12 h
O=C(NO)C1(S(=O)(=O)c2ccc(Sc3ccccc3)cc2)CCOCC1 :: 1.06 h
Cl.O=C(NO)C1(S(=O)(=O)c2ccc(Sc3ccccc3)cc2)CCN(C2CC2)CC1 :: 1.03 h

Switching to the query record.
State its t½ Hour: NCC(=O)Nc1ccc(Sc2ccc(S(=O)(=O)C3(C(=O)NO)CCSCC3)cc2)cc1
1.85 h
